System: MOLT-4 leukemia
Assay: NCI tumour cell line growth inhibition, 48 h
Exercise: for every item that follows, state its recorded TGI.

Examples with their reported TGI follow.
COc1cc(C)c2c(=O)c3ccccc3n(C)c2c1 ... > 100 µM
CCn1c(CN2CCN(Cc3ccccc3)CC2)nc2cc(NC(=O)c3cccs3)ccc21 ... 37.9 µM

For the next question, use this molecule.
Query: Tell me TGI reported for `CC(C)(C)C(=O)C(C(=O)C(C)(C)C)C(=O)C(C)(C)C`
Reply: > 100 µM

---

Test system: SF-539 CNS
Assay: NCI tumour cell line growth inhibition, 48 h; in the data active = GI50 below about 0.43 µM; inactive = the rest
Hi! Could you answer with just one of these? active, inactive

// below: answered compounds
O=c1c2ccccc2n(C[C@H]2CO2)c2ccccc12 ... inactive
CC1=C2C[C@H]3[C@@H](CC[C@@H]4CC(NS(C)(=O)=O)CC[C@@]43C)[C@@H]2CC[C@@]2(C1)O[C@@H]1C[C@H](C)CN[C@H]1[C@H]2C (some centres undefined) ... inactive
CCOC(=O)c1[nH]c(Br)c(-c2ccc(Br)cc2)c1Br ... active
CCC/C(=N/N=C(N)N)c1ccc(NC(=O)c2cc3cc(OC)ccc3[nH]2)cc1 ... inactive
O=C(/C=C/c1cccnc1)NCCCCC1CCCN(C(=O)c2ccccc2)C1 (centres undefined) ... active

Query: Recorded test outcome, item `O=C1c2cc3c(cc2-c2c1c1ccc(Cl)cc1c(=O)n2CCCNCCO)OCO3`
Reply: active

Query: Recorded test outcome, item `O=C(Nc1cc(Cl)cc(Cl)c1)c1ccc(NC2=C(Cl)C(=O)N(Cc3ccc(Cl)cc3Cl)C2=O)cc1`
Reply: inactive

Query: Recorded test outcome, item COC1CC2CCC(C)C(O)(O2)C(=O)C(=O)N2CCCCC2C(=O)OC(C(C)CC2CCC(O)C(OC)C2)CC(=O)C(C)C=C(C)C(O)C(OC)C(=O)C(C)CC(C)/C=C/C=C/C=C1C (centres undefined)
Reply: active

Query: Recorded test outcome, item `Cc1cc(S(N)(=O)=O)c(S/C(CC(C)C)=N\Nc2ccc([N+](=O)[O-])cc2)cc1Cl`
Reply: inactive

---

Test system: MDA-N
Assay: NCI tumour cell line growth inhibition, 48 h
Exercise: for every item that follows, state its recorded TGI.

Examples with their reported TGI follow.
COC(=O)c1ccccc1C1CN=NC12Cc1ccc(C)c(C)c1C2=O (centres undefined) ... > 100 µM
O=C(COc1ccc(OCC(=O)N2C(=O)CSC2=Nc2ccccc2)cc1)N1C(=O)CSC1=Nc1ccccc1 ... 79.7 µM
N#Cc1c(O)c(N=Nc2ccccc2F)c(=O)n2c1[nH]c1ccccc12 ... > 100 µM

Query: Under MDA-N: report TGI of `C=CCN1C(=O)/C(=C/c2ccc(OC)cc2)NC1=S` .
Reply: > 100 µM

---

System: SK-MEL-28 melanoma
Experiment: NCI tumour cell line growth inhibition, 48 h
experimental-readout: TGI (µM)
Give bare numbers, in µM.

Examples with their reported TGI follow.
O=C(Nc1cc(Cl)cc(Cl)c1)c1ccc(NC2=C(Cl)C(=O)N(Cc3ccc(Cl)cc3Cl)C2=O)cc1 ... 75.8
C=C1C(=O)O[C@H]2[C@H]1CC/C(Cn1cc(-c3cc(C(F)(F)F)cc(C(F)(F)F)c3)nn1)=C\CC[C@@]1(C)O[C@@H]21 ... 1.65
COC1CC2CCC(C)C(O)(O2)C(=O)C(=O)N2CCCCC2C(=O)OC(C(C)CC2CCC(O)C(OC)C2)CC(=O)C(C)C=C(C)C(O)C(OC)C(=O)C(C)CC(C)/C=C/C=C/C=C1C (configuration not stated) ... 11.2
O=c1c2ccccc2n(C[C@H]2CO2)c2ccccc12 ... 5.76
Cn1c(/C=C(\C#N)c2ccccc2)nc2c(N3CCOCC3)nc(Cl)nc21 ... 2.96
Nc1nc(Cl)c2ncn(Cc3ccc(CCl)cc3)c2n1 ... 44.4
COc1ccc(/C=C/C(=O)c2ccc(SC)cc2)cc1OC ... 39.8
CC[C@H](Nc1nc(NCc2cnc(C)cc2C)c2ncn(C(C)C)c2n1)[C@@H](C)O ... 6.8
COc1ccc(/C=C\c2cc(OC)c(OC)c(OC)c2)cc1OC(=O)c1cccc(Cn2cc(CCOC(=O)[C@H](N)Cc3cn(C)c4ccccc34)nn2)c1 ... 36.1
O=C(Nc1cccc(Cl)c1)c1ccc(NC2=C(Cl)C(=O)N(Cc3ccccc3)C2=O)cc1 ... 31.7

For each of the molecules below, state TGI.
1. COc1cc2c3c(n(CCCN)c(=O)c2cc1OC)-c1cc2c(cc1/C3=C\CCN)OCO2
2. O=C1c2cc3c(cc2-c2c1c1ccc(Cl)cc1c(=O)n2CCCNCCO)OCO3
3. O=c1ccc2nc(-c3ccccc3)nn(-c3ccccn3)c-2c1
4. Cc1nc(Nc2ccccc2Cl)sc1C(=O)CC(=O)C(=O)Nc1c(Cl)cccc1Cl

Reply:
9.67
3.26
29.8
85.6

---

System: MDA-MB-231 breast
Test: NCI tumour cell line growth inhibition, 48 h
experimental-readout: GI50

Examples with their reported GI50 follow.
NC(N)=N/N=C\c1cccc(OCc2ccccc2)c1 ... 2.37 µM
CCC(CO)Nc1nc(NCc2ccccc2O)c2ncn(C(C)C)c2n1 (stereo not drawn) ... 4.22 µM

For the next question, use this compound.
Query: Tell me GI50 reported for `O=C(Nc1cccc(Cl)c1)c1ccc(NC2=C(Cl)C(=O)N(Cc3ccccc3)C2=O)cc1`
Reply: 8.08 µM

---

Exercise: for every item that follows, state its recorded TGI.
Tested on: TK-10 renal
Experiment: NCI tumour cell line growth inhibition, 48 h

Examples with their reported TGI follow.
COc1ccc2nc3ccc(OC)cc3c(SCc3ccc([N+](=O)[O-])cc3)c2c1 ... > 100 µM
CC(=O)O[C@H]1C(=O)[C@@]2(C)[C@H]([C@H](OC(=O)c3cccc(C(F)(F)F)c3)[C@]3(O)C[C@H](OC(=O)[C@H](O)[C@@H](NC(=O)c4ccccc4)c4ccccc4)C(C)=C1C3(C)C)[C@]1(OC(C)=O)CO[C@@H]1C[C@@H]2O ... 8.88 µM
COc1ccc(/C=C/C(=O)c2ccc(SC)cc2)cc1OC ... 32.8 µM

For each of the compounds below, state TGI.
1. Cc1ccc(NN=NCCCCN)cc1
2. Ic1ccccc1-c1ccccc1
3. CCCCc1c2c(nc3c1CCCC3O)CCCC2 (stereo not given)
4. O=C1CCCCCCCC/C=C\CC(c2ccco2)O1 (stereo not given)
5. Cc1ccc(N=Nc2ccc(O)c(CN(C)C)c2)cc1C

Reply:
["> 100 µM", "> 100 µM", "> 100 µM", "> 100 µM", "43.3 µM"]

---

System: A549 NSCLC
Test: NCI tumour cell line growth inhibition, 48 h
experimental-readout: TGI

COc1cc(OC)c2c(=O)cc(-c3ccccc3F)[nH]c2c1 ... > 100 µM
O=C1c2ccccc2NC(=O)C2C1C(c1ccccc1)CC2(O)c1ccccc1 (centres undefined) ... > 100 µM
CCOC(=O)c1[nH]c(Br)c(-c2ccc(Br)cc2)c1Br ... 29.8 µM
CCC(CO)Nc1nc(NCc2ccccc2O)c2ncn(C(C)C)c2n1 (centres undefined) ... > 100 µM
O=C1c2cc3c(cc2-c2c1c1ccc(Cl)cc1c(=O)n2CCCNCCO)OCO3 ... 2.38 µM

For each of the compounds below, state TGI.
1. COc1cc(NC(C)=O)ccc1C(=O)N/N=C/c1ccc(Cl)cc1Cl
2. CC(C)(C)N1C(C(=O)c2ccccc2)C1c1ccccc1 (centres undefined)
3. COc1cc(C)c(Cl)cc1C1=NN(c2ccc(S(N)(=O)=O)cc2)C(/C=C/c2ccccc2)C1 (centres undefined)
4. C/C(=N\Nc1cc(C)c2cc(C)ccc2n1)c1ccccn1

Reply:
1: > 100 µM; 2: > 100 µM; 3: 19.3 µM; 4: 1.14 µM

---

Exercise: for every item that follows, state its recorded TGI.
Tested on: SK-OV-3 ovarian
Assay: NCI tumour cell line growth inhibition, 48 h

For each of the compounds below, state TGI.
1. CC(C)=CCNc1ncnc2nc[nH]c12
2. CCOC(=O)C(/C=N\C(=S)Nc1ccc(Cl)c(Cl)c1)=C(/O)c1ccccc1
3. Cc1ccc(C)n1-n1c(Cc2ccccc2)n[nH]c1=O
4. CC(C)CC1C(=O)NCCC(NC(=O)C(N)Cc2ccc(O)cc2)C(=O)NC(Cc2ccccc2)C(=O)NC(Cc2ccccc2)NC1=O (stereo not given)

Reply:
1. > 100 µM
2. > 100 µM
3. > 100 µM
4. > 100 µM

For each of the compounds below, state TGI.
1. CCCc1cc2c(=O)c(C(=O)OC)c[nH]c2cc1N(CC)CC
2. COC1CC(OC2C(C)OC(OC3C(C)OC(OC4C(O)CC(O[C@H]5CC[C@@]6(C)C(=CC[C@]7(O)[C@@H]6C[C@@H](OC(=O)/C=C/c6ccccc6)[C@@]6(C)[C@]7(O)CC[C@@]6(O)C(C)=O)C5)OC4C)CC3OC)CC2OC)OC(C)C1O (stereo not given in full)
3. O=c1nc2n(-c3ccc(Cl)cc3)c3ccc([N+](=O)[O-])cc3cc-2c(=O)[nH]1
4. O=C1C(=O)c2ccccc2C(O)=C1CC=C(Br)Br

Reply:
["> 100 µM", "> 6.25 µM", "> 100 µM", "59.8 µM"]

For each of the compounds below, state TGI.
1. O=C(CNc1cccc([N+](=O)[O-])c1)Nn1c(-c2ccccc2)nc2ccccc2c1=O
2. NNC(=O)c1ccccc1NC(=O)/C(=C/c1ccccc1O)NC(=O)c1ccccc1
3. CCOc1ccc(-c2nonc2NC(=O)c2cccc(C)c2)cc1OCC

Reply:
1. 2.04 µM
2. > 100 µM
3. > 100 µM

For each of the compounds below, state TGI.
1. Cc1ccccc1N=Nc1ccc(NC(=O)c2ccnn2C)c(C)c1
2. N#CN=C(N)NC(=O)/C=C/C=C/c1ccc(Cl)cc1
3. O=C1c2ccccc2C(=O)[C@@]23O[C@@]12C1(Oc2cccc4cccc(c24)O1)[C@@H]1O[C@@H]1[C@@H]3O
4. COc1ccccc1CCN=C1NC(=O)/C(=C/c2ccc3ncccc3c2)S1

Reply:
1. > 100 µM
2. > 100 µM
3. 28.6 µM
4. 14.4 µM

The reported measurements were obtained from PubChem BioAssay (NCI).
